B1: 2K2A (parent)
chain: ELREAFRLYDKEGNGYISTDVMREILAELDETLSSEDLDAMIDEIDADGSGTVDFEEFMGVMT

- Variants of: B1
- measurement.description: folding stability dG (cDNA display proteolysis); higher = more stable
- run.conditions: PBS, room temperature
Recorded folding stability dG, one value per entry.

>  <mutation.name>
I25W

>  <unit.of.measurement>
kcal/mol

>  <folding stability dG>
0.943

$$$$
>  <mutation.name>
E12N

>  <unit.of.measurement>
kcal/mol

>  <folding stability dG>
1.52

$$$$
>  <mutation.name>
D54C

>  <unit.of.measurement>
kcal/mol

>  <folding stability dG>
1.51

$$$$
>  <mutation.name>
A27N

>  <unit.of.measurement>
kcal/mol

>  <folding stability dG>
1.24

$$$$
>  <mutation.name>
D43V

>  <unit.of.measurement>
kcal/mol

>  <folding stability dG>
1.96

$$$$
>  <mutation.name>
E1Q

>  <unit.of.measurement>
kcal/mol

>  <folding stability dG>
2.08

$$$$
